Data provenance is patent US20220127247A1.

EC50 reference
# tested-system: delF508-CFTR (Homo sapiens, UniProt P13569, DEL508-508)
# Construct: expressed in transfected cells
# Sequence (P13569 with tags, fused parts or gaps DEL508-508): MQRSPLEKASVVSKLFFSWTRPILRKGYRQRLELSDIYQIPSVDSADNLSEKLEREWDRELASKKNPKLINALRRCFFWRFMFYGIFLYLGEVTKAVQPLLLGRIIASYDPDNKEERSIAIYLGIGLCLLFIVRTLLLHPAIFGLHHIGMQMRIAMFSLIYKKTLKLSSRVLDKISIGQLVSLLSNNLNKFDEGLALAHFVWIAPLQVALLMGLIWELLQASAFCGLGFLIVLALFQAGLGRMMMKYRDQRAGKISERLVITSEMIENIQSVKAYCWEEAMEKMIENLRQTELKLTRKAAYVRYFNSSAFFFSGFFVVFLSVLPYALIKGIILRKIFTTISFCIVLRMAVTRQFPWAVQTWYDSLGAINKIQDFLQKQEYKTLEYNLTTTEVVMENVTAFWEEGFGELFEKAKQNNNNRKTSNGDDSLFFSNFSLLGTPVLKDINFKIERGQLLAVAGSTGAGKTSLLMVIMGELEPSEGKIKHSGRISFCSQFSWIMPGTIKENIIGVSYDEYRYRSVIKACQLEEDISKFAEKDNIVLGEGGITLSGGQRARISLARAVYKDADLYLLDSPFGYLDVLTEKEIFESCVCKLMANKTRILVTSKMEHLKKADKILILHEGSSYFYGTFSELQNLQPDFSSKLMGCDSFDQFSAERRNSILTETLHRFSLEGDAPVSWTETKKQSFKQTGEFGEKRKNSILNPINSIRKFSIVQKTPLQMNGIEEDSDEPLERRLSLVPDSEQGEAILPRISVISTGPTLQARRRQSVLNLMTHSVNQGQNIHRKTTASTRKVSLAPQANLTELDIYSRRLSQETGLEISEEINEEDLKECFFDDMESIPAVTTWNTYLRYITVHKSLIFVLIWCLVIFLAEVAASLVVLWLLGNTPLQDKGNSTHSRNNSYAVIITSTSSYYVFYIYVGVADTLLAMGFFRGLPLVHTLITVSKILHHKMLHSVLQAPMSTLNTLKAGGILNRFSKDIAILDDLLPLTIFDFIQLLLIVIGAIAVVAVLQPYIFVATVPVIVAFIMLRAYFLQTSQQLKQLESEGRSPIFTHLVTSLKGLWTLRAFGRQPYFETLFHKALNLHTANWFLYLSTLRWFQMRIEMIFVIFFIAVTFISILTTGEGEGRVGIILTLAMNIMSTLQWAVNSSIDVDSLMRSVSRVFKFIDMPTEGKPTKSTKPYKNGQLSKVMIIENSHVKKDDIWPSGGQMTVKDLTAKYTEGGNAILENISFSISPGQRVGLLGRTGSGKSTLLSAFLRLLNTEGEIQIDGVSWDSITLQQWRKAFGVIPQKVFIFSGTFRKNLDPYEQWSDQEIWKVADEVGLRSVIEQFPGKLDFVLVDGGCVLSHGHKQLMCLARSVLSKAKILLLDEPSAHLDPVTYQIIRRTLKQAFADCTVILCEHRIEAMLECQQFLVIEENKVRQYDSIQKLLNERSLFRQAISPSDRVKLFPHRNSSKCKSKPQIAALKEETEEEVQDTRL
# procedure-text: Measurement of delF508-CFTR-HRP surface expression in CFBE41o- cells
# Type: cell-based
# assay-context: HRP-tagged delF508-CFTR in CFBE41o- cells, 24 h with compound, luminescence, 10-point curve, top 10 μM
assay-readout: EC50

[
  {
    "chemical-smiles": "CCN(CCC(=O)O)c1cccc(S(=O)(=O)Nc2ccc(C(F)(F)F)c(-c3ccccc3C)n2)n1",
    "result": "2.36 µM"
  },
  {
    "chemical-smiles": "Cc1ccccc1-c1nc(NS(=O)(=O)c2cccc(N(CCCC(=O)O)C3CC3)n2)ccc1C(F)(F)F",
    "result": "1.36 µM"
  },
  {
    "chemical-smiles": "Cc1ccccc1-c1nc(NS(=O)(=O)c2cccc(N3CCC(C)(CC(=O)O)CC3)n2)ccc1C(F)(F)F",
    "result": "1.88 µM"
  },
  {
    "chemical-smiles": "Cc1ccccc1-c1nc(NS(=O)(=O)c2cccc(N(CCCCC(=O)O)C(C)C)n2)ccc1C(F)(F)F",
    "result": "1.59 µM"
  }
]

----------
# tested-system: delF508-CFTR (Homo sapiens, UniProt P13569, DEL508-508)
# Construct: expressed in transfected cells
# procedure-text: delF508-CFTR functional activity in primary human bronchial epithelial cells (HBECs), Multi-Transepithelial Clamp Circuit (MTECC-24) assay
# Type: cell-based
# assay-context: primary human delF508-CFTR bronchial epithelial cells, 24 h with compound, equivalent short circuit current (Ieq), forskolin plus potentiator; mean of at least two replicates; read-out: MTECC24-CFHBEC EC50
pEC50: −log10 of the molar value.
Cut-off 7 on pEC50, inclusive. At or above means TRUE; below means FALSE.

[
  {
    "molecule": "Cc1ccccc1-c1nc(NS(=O)(=O)c2cccc(N(CCC(=O)O)CC(C)C)n2)ccc1C(F)(F)F [Compound 128]",
    "tested-system": "delF508-CFTR (Homo sapiens, UniProt P13569, DEL508-508)",
    "label-value": "TRUE"
  },
  {
    "molecule": "Cc1ccccc1-c1nc(NS(=O)(=O)c2cccc(N(CCCC(=O)O)C3CC3)n2)ccc1C(F)(F)F [Compound 125]",
    "tested-system": "delF508-CFTR (Homo sapiens, UniProt P13569, DEL508-508)",
    "label-value": "FALSE"
  },
  {
    "molecule": "CCc1ccc(F)cc1-c1nc(NS(=O)(=O)c2cccc(N(CC)CCCC(=O)O)n2)ccc1C(F)(F)F [Compound 110]",
    "tested-system": "delF508-CFTR (Homo sapiens, UniProt P13569, DEL508-508)",
    "label-value": "TRUE"
  },
  {
    "molecule": "Cc1ccccc1-c1nc(NS(=O)(=O)c2cccc(N(C)CCCCC(=O)O)n2)ccc1C(F)(F)F [Compound 66]",
    "tested-system": "delF508-CFTR (Homo sapiens, UniProt P13569, DEL508-508)",
    "label-value": "FALSE"
  },
  {
    "molecule": "Cc1ccc(F)cc1-c1nc(NS(=O)(=O)c2cccc(N(CCCC(=O)O)C(C)C)n2)ccc1C(F)(F)F [Compound 95]",
    "tested-system": "delF508-CFTR (Homo sapiens, UniProt P13569, DEL508-508)",
    "label-value": "TRUE"
  },
  {
    "molecule": "Cc1ccc(F)cc1-c1nc(NS(=O)(=O)c2cccc(N(CCCC(=O)O)CC(C)C)n2)ccc1C(F)(F)F [Compound 127]",
    "tested-system": "delF508-CFTR (Homo sapiens, UniProt P13569, DEL508-508)",
    "label-value": "TRUE"
  },
  {
    "molecule": "Cc1ccccc1-c1nc(NS(=O)(=O)c2cccc(N3CCC[C@H](CCC(=O)O)C3)n2)ccc1C(F)(F)F (single isomer, unassigned) [Compound 62]",
    "tested-system": "delF508-CFTR (Homo sapiens, UniProt P13569, DEL508-508)",
    "label-value": "TRUE"
  },
  {
    "molecule": "Cc1ccc(F)cc1-c1nc(NS(=O)(=O)c2cccc(N(C)CCCC(=O)O)n2)ccc1C(F)(F)F [Compound 92]",
    "tested-system": "delF508-CFTR (Homo sapiens, UniProt P13569, DEL508-508)",
    "label-value": "FALSE"
  },
  {
    "molecule": "Cc1ccccc1-c1nc(NS(=O)(=O)c2cccc(N(CCC(=O)O)C3CC3)n2)ccc1C(F)(F)F [Compound 118]",
    "tested-system": "delF508-CFTR (Homo sapiens, UniProt P13569, DEL508-508)",
    "label-value": "FALSE"
  },
  {
    "molecule": "CCc1ccc(F)cc1-c1nc(NS(=O)(=O)c2cccc(N(CC)CCC(=O)O)n2)ccc1C(F)(F)F [Compound 81]",
    "tested-system": "delF508-CFTR (Homo sapiens, UniProt P13569, DEL508-508)",
    "label-value": "TRUE"
  },
  {
    "molecule": "CCCN(CCCC(=O)O)c1cccc(S(=O)(=O)Nc2ccc(Cl)c(-c3c(C)cccc3C)n2)n1 [Compound 157]",
    "tested-system": "delF508-CFTR (Homo sapiens, UniProt P13569, DEL508-508)",
    "label-value": "FALSE"
  },
  {
    "molecule": "Cc1ccccc1-c1nc(NS(=O)(=O)c2cccc(N(C)CC3(C(=O)O)CCOCC3)n2)ccc1C(F)(F)F [Compound 133]",
    "tested-system": "delF508-CFTR (Homo sapiens, UniProt P13569, DEL508-508)",
    "label-value": "FALSE"
  },
  {
    "molecule": "Cc1ccccc1-c1nc(NS(=O)(=O)c2cccc(N(CCCC(=O)O)C(C)C)n2)ccc1C(F)(F)F [Compound 94]",
    "tested-system": "delF508-CFTR (Homo sapiens, UniProt P13569, DEL508-508)",
    "label-value": "TRUE"
  },
  {
    "molecule": "CCN(CCC(=O)O)c1cccc(S(=O)(=O)Nc2ccc(C(F)(F)F)c(-c3cccc(F)c3C)n2)n1 [Compound 56]",
    "tested-system": "delF508-CFTR (Homo sapiens, UniProt P13569, DEL508-508)",
    "label-value": "FALSE"
  }
]

----------
# tested-system: delF508-CFTR (Homo sapiens, UniProt P13569, DEL508-508)
# Construct: expressed in transfected cells
# procedure-text: Measurement of delF508-CFTR-HRP surface expression in CFBE41o- cells
# Assay type: cell-based
# assay-context: HRP-tagged delF508-CFTR in CFBE41o- cells, 24 h with compound, luminescence, 10-point curve, top 10 μM
# Experimental: Measurement of delF508-CFTR-HRP Surface Expression in CFBE41o-Cells This assay quantifies the cell surface expressions of the mutant CFTR channel using an extracellular HRP tag. […] The median activity for the lowest concentration of the compounds on each assay plate was calculated and this value was used to normalize the signal for each well on the respective plate. […] The median value was determined and used to calculate compound activities as described below. […]
pEC50: −log10 of the molar value.

[
  {
    "molecule": "Cc1ccccc1-c1nc(NS(=O)(=O)c2cccc(N(CCC(=O)O)CC3CC3)n2)ccc1C(F)(F)F",
    "tested-system": "delF508-CFTR (Homo sapiens, UniProt P13569, DEL508-508)",
    "pEC50": 5.86
  },
  {
    "molecule": "Cc1ccc(F)cc1-c1nc(NS(=O)(=O)c2cccc(N(CCCC(=O)O)CC3CC3)n2)ccc1C(F)(F)F",
    "tested-system": "delF508-CFTR (Homo sapiens, UniProt P13569, DEL508-508)",
    "pEC50": 5.89
  },
  {
    "molecule": "CC(C)c1ccncc1-c1nc(NS(=O)(=O)c2cccc(N3CCCC(C)(C(=O)O)C3)n2)ccc1C(F)(F)F (stereo not drawn)",
    "tested-system": "delF508-CFTR (Homo sapiens, UniProt P13569, DEL508-508)",
    "pEC50": 5.65
  },
  {
    "molecule": "CCC(NC(=O)C1CCC(Nc2cccc(S(=O)(=O)Nc3ccc(Cl)c(-c4ccccc4C)n3)n2)CC1)C(=O)O (stereo not drawn)",
    "tested-system": "delF508-CFTR (Homo sapiens, UniProt P13569, DEL508-508)",
    "pEC50": 5.64
  },
  {
    "molecule": "Cc1ccc(F)cc1-c1nc(NS(=O)(=O)c2cccc(N(C)CCC(=O)O)n2)ccc1C(F)(F)F",
    "tested-system": "delF508-CFTR (Homo sapiens, UniProt P13569, DEL508-508)",
    "pEC50": 5.69
  },
  {
    "molecule": "C=Cc1ccccc1-c1nc(NS(=O)(=O)c2cccc(N3CCC[C@@H](CC(=O)O)C3)n2)ccc1C(F)(F)F",
    "tested-system": "delF508-CFTR (Homo sapiens, UniProt P13569, DEL508-508)",
    "pEC50": 5.63
  }
]
